Here, each record is paired with measured growth data.
System: MDA-MB-468 breast
Experiment: NCI-60 one-dose screen, 48 h (100 = growth as untreated, 0 = no growth, -100 = all killed)
Conditions: 10 µM unless noted
About 83,000 compounds went through this panel and 20% of them were active in at least one assay; those are over-represented in the sample as a whole. Active and inactive are the calls of the source. Rule for the calls: active = growth percent below 10; inactive = the rest.

Examples from the recorded data:
>>> value("CC1(C)CCCN1CCCN1c2ccccc2Sc2ccc(Cl)cc21")
"37.6% (inactive)"
>>> value("CCCCCCNC(=O)Oc1ccc(/C(=C(\\C)c2ccc(Cl)cc2)c2ccc(OCCN(CC)CC)cc2)cc1")
"52.4% (inactive)"
>>> value("COc1ccc(Nc2nc(SCC(C)C)nc(-c3ccc(F)cc3)c2C#N)cc1")
"32.6% (inactive)"

Lab note: next compound to report on.
The compound listed as O=C1CC[C@@H](C(=O)N[C@H]2CSSC[C@@H](C(=O)N/C=C/c3ccc(O)cc3)NC(=O)[C@H](Cc3ccccc3)NC(=O)[C@@H]3CCCN3C(=O)[C@@H]3CCCN3C2=O)N1 has a reported growth of 89.5% (inactive)

---

Test system: MDA-MB-468 breast
Test: NCI-60 one-dose screen, 48 h (100 = growth as untreated, 0 = no growth, -100 = all killed)
Conditions: 10 µM unless noted
Compounds without any hit were thinned out: in the full panel of roughly 83,000, 20% have a hit.
Response field label takes 1 (yes) when growth is strictly below 30% and 0 (no) in all other cases.

Some solved cases for reference:
>>> assigned_label("Cc1ccc(-c2c(-c3ccccc3)c(=O)oc3ccc(C)cc23)cc1")
"0 (no)"
>>> assigned_label("Clc1ccc(Cl)c(N=Cc2ccc3c(c2)OCO3)c1")
"0 (no)"
>>> assigned_label("NNCCc1ccc(NC(=O)CCCc2ccc(C(=O)Nc3ccccc3N)cc2)cc1")
"0 (no)"
>>> assigned_label("C=C1C(=O)O[C@H]2[C@H]1CC/C(C=Nc1c(N)cc(F)cc1Br)=C\\CC[C@@]1(C)O[C@@H]21")
"0 (no)"
>>> assigned_label("Cc1[nH]nc2ncc(C#Cc3cncc(C(=O)Nc4ccc(CN5CCN(C)CC5)c(C(F)(F)F)c4)c3)cc12")
"1 (yes)"
>>> assigned_label("CCCCCCCCCCCCCCCCCCNC(=O)[C@H]1CSC(c2cccs2)N1 (some centres undefined)")
"0 (no)"
>>> assigned_label("Cc1cc(Nc2nc(C(=O)Nc3ccccc3)nc3ccccc23)n[nH]1")
"0 (no)"
>>> assigned_label("C#Cc1nc(C(=O)NCCCCCCC(=O)NO)cs1")
"1 (yes)"
>>> assigned_label("Fc1cc(-c2ncc(-c3cc(F)c(F)c(F)c3)c(NC3CCCCCC3)n2)cc(F)c1F")
"0 (no)"
>>> assigned_label("c1ccc(-c2nn[nH]n2)c(-c2ccc(CN3CCN(c4nsc5ccccc45)CC3)cc2)c1")
"0 (no)"

We now examine a further compound.
Determine whether this compound shows growth lower than 30% (ties excluded): C=CC[N+](C)(C)C
0 (no)

---

Test system: SR leukemia
Assay: NCI-60 one-dose screen, 48 h (100 = growth as untreated, 0 = no growth, -100 = all killed)
Settings: 10 µM
Description: Growth inhibition of the SR human tumor cell line is measured as a screen for anti-cancer activity. Cells are grown in 96 well plates and exposed to the test compound for 48 hours. Compounds are tested at a single concentration, which is 10^-5 M for most compounds. The reported endpoint is percent growth (GI% or GIPRCNT), where numbers from 0 - 100% represent growth inhibition, and numbers from -100% - 0 represent cell death. For example, a value of 40 represents 60% growth inhibition. […]
The panel holds about 83,000 compounds, 20% with a hit somewhere; the sample as a whole holds those more often.
property_name: growth (%)
Just the number in %, nothing appended.

>>> value("COc1cc(C2CC(c3ccc(Oc4ccc(Cl)cc4)cc3)=NN2c2nc(-c3ccc(Cl)cc3)c(C#N)c(N3CCOCC3)n2)cc(OC)c1OC (stereo not given)")
88.5
>>> value("COc1ccc(OC)c(-n2cc(C#N)c(N)c2C(=O)c2ccc(Cl)cc2Cl)c1")
13.7
>>> value("O=C(CN1CCN(c2ncnc3c2cnn3-c2ccccc2)CC1)Nc1ccc(Br)cc1")
40.3
>>> value("C#C[C@]1(O)CC[C@H]2[C@@H]3CC=C4c5sc(Nc6ccc(C(F)(F)F)cn6)nc5CC[C@]4(C)[C@H]3CC[C@@]21C")
1.07
>>> value("COc1ccc(NCc2cn(-c3ccc(C(=O)O)cc3)nc2-c2ccc(F)cc2)cc1C(F)(F)F")
50.7
>>> value("CCOC(=O)C1=C(N)N(c2ccc(C)cc2)C2=C(C(=O)CC(C)(C)C2)C1c1ccccc1Br (stereo not given)")
65.7
>>> value("O=C(c1ccccc1)c1ccc2nc(-c3ccccc3Br)[nH]c2c1")
-22.8
>>> value("O=C(O)CCN1C(=O)/C(=C/C=C/c2ccc([N+](=O)[O-])o2)SC1=S")
0.111

The compound listed as CCn1c(SCC(=O)Nc2ccc(-c3nc4ccccc4[nH]3)cc2)nc2ccccc2c1=O has a reported growth of -15.2

# growth (compound: Cc1cc(N=C2NC(=O)S/C2=C\c2ccc(F)cc2)n[nH]1 ) is 8.59

---

System: MDA-MB-468 breast
Experiment: NCI-60 one-dose screen, 48 h (100 = growth as untreated, 0 = no growth, -100 = all killed)
Conditions: 10 µM unless noted
About 83,000 compounds went through this panel and 20% of them were active in at least one assay; those are over-represented in the sample as a whole.
Cut-off 70% on growth: below means MET, at or above means NOT MET.

As a guide, the following entries are already answered.
>>> assigned_label("Cc1ccc(OCCOCCOCCOc2ccc(C)n(O)c2=S)c(=S)n1O")
"MET"
>>> assigned_label("C#Cc1nc(/C=C/C(=O)c2nccn2C)cs1")
"MET"
>>> assigned_label("Cc1nc2sc(C(=O)Nc3cccc(Cl)c3C)c(N)c2cc1C(=O)c1ccccc1")
"MET"
>>> assigned_label("OCc1ccccc1F")
"NOT MET"
>>> assigned_label("COC(=O)C(c1ccccc1)C(CC(=O)c1ccccc1)c1ccccc1 (stereo unspecified)")
"NOT MET"

Query compound follows.
Lab note: growth threshold 70%. Does this compound come in strictly under it? CCC(C)Oc1cc(/C=N/NC(=O)c2cnn3c2NC(c2ccccc2)C3)ccc1OC (stereo unspecified)
MET

---

Test system: MDA-MB-468 breast
Experiment: NCI-60 one-dose screen, 48 h
Settings: 10 µM unless noted
Compounds without any hit were thinned out: in the full panel of roughly 83,000, 20% have a hit. Calls of active or inactive are those of the source. How the source made its calls: active means growth percent below 10; inactive means the rest.
Hi! Could you answer with just one of these? active, inactive

>>> assigned_label("CC(=O)Nc1ccccc1-c1nc2ccccc2s1")
"inactive"
>>> assigned_label("CC(C)CN1CC(C(=O)Nc2ccc3c(c2)-c2ccccc2C3)CC1=O (stereo unspecified)")
"inactive"
>>> assigned_label("O=C(NCCCNc1cc(-c2cn(-c3ccccc3)nc2-c2cccc(O)c2)ccn1)Nc1cc(C(F)(F)F)cc(C(F)(F)F)c1")
"inactive"
>>> assigned_label("O=C1/C(=C\\c2ccc[nH]2)c2ccccc2N1c1ccccc1")
"active"
>>> assigned_label("COc1ccc2c(c1)C(=O)c1c-2c(OCCN(C)C)nc2ccccc12")
"inactive"
>>> assigned_label("CC(C)(C)OC(=O)N1CCCN(CCNc2nccc(-c3c(-c4cccc(O)c4)nc4sccn34)n2)S1(=O)=O")
"inactive"
>>> assigned_label("O=C(/C=C1\\C=CN(CCCCCCF)c2ccccc21)n1ccc2ccccc21")
"inactive"
>>> assigned_label("CNc1ccccc1C(N)=O")
"inactive"
>>> assigned_label("Cc1ccc(/C=C(\\C#N)C(=O)Nc2ncc(Cc3cc(Cl)ccc3Cl)s2)o1")
"inactive"
>>> assigned_label("C[N+](C)(C)C(=O)c1ccccc1")
"inactive"

Turning to the following molecule.
Dear colleague, could you share the recorded outcome for O=c1[nH]nc(-c2ccccc2)c2sc(NC(=S)Nc3ccc(Cl)cc3)nc12 when you have a moment?
inactive

---

Test system: MDA-MB-468 breast
Test: NCI-60 one-dose screen, 48 h
Details: 10 µM unless noted
The panel holds about 83,000 compounds, 20% with a hit somewhere; the sample as a whole holds those more often. Calls of active or inactive are those of the source. Rule for the calls: active = growth percent below 10; inactive = the rest.
Your reply should match one of these outcome classes. 1 = active, -1 = inactive

>>> assigned_label("COc1cccc(CCNc2ncnc3c2ncn3Cc2nnc3c4ccccc4c(Cl)nn23)c1")
-1

I would be grateful if you could indicate the recorded call for COC(=O)c1ccc2c(c1)NC(=O)[C@@H]1CCCN21 .
-1

Just curious, what result did Nc1cc(-c2c[nH]c3ccccc23)nc2cc(-c3c[nH]c4ccccc34)nn12 get here?
-1

Status in this test for COC(=O)/C=C/C(=O)NC(N)=O ?
-1

Please let me know the test result on file for Nc1ccc(Sc2ccc([N+](=O)[O-])c3nonc23)cc1 .
-1

Please indicate how the test categorized CC(=O)C1N=NCC1c1ccccc1 (configuration not stated) .
-1

Entry N=C(N)c1ccc(-c2ccc(-c3cccs3)s2)cc1 : call = ?
1

Please indicate how the test categorized CN(C)CCC(=O)c1ccc(O)cc1 .
-1
